So I've got a bunch of compounds here, and I need their K values.
# Species: Rattus norvegicus
# measurement-protocol: Open TG-GATES - Regimen: Single
# Format: toxicity, organism-based, Sprague-Dawley
# Design: regimen Single, gender Male, age 6 weeks
# condition-description: in vivo, po, 100 mg/kg, 9 h, tissue Plasma, route gavage, dose level High
Answers are plain numbers, in meq/L.

Use these answered entries as a reference point.
| mol-smiles | units-text | K |
| --- | --- | --- |
| CN(C)CCCN1c2ccccc2CCc2ccccc21 | meq/L | 4.1 |
| CC1=C(/C=C/C(C)=C/C=C/C(C)=C/CO)C(C)(C)CCC1 | meq/L | 4.3 |
| CN(C)CCN(Cc1cccs1)c1ccccn1 | meq/L | 4.2 |

Here is the next item to consider.
May I ask what K has been recorded for `CN(C)CCCN1c2ccccc2CCc2ccc(Cl)cc21` ?
3.7
